Would you kindly list phosphorylation enrichment for each of these sequences?
# Measurement target: EPHB1 (UniProt P54762)
# Sequence (P54762 whole entry, looked up): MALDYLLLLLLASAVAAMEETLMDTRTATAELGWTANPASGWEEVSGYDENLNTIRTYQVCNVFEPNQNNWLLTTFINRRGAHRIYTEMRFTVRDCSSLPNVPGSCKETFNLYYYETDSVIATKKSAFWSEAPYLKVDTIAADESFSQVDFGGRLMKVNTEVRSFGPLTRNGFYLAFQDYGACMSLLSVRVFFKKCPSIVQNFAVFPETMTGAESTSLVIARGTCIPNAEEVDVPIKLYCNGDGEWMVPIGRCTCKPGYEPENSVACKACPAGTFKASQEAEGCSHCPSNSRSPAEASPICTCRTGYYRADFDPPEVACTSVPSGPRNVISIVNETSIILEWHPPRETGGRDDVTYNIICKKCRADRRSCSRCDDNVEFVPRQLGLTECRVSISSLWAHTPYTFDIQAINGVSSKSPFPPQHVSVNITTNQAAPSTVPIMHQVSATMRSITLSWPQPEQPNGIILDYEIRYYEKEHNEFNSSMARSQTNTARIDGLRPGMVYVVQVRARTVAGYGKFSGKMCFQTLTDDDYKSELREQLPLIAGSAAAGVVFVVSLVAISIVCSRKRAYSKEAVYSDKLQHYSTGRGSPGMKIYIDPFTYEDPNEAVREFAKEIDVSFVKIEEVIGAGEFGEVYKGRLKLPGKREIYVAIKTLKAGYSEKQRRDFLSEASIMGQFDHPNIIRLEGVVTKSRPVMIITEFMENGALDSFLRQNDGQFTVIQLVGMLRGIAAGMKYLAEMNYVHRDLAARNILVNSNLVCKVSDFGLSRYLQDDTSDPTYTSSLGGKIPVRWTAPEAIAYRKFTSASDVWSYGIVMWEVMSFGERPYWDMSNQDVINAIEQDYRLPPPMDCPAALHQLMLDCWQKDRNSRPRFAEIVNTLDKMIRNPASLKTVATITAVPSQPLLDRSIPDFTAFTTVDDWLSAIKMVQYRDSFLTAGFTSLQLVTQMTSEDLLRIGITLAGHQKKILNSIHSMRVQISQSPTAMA
# Assay protocol: phosphorylation enrichment, bacterial display (enrichment ratio); higher = better substrate or ligand; peptides without Tyr show the background;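 further: 11-residue human phosphosite peptides and single-mutation variants displayed on the E. coli surface, counted by deep sequencing, each peptide's frequency after selection divided by its frequency in the unselected input library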;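 further: frequency after pTyr selection over input frequency; kinase dosed for 20-30% of maximal phosphorylation in three min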

For every record below, what is its phosphorylation enrichment?
1. PESTLYRKFTT [NTRK1_Y701_I699T]
2. SGSWSYNTSTE [SELE_Y24_A21S]
3. AEEPIYIIVPA [BMXtide_2014]
4. HRGSLYLAIEF [TEK_Y899_Y897S_YF]
5. HLVLNYGVCIC [JAK2_Y613_V617I]
6. SNNYIYKTLGV [FAM83B_Y639]
7. DLVHPYVHKIL [SF3B1_Y570_R568H]

1. 0.433
2. 0.56
3. 18.5
4. 0.641
5. 1.39
6. 0.48
7. 0.468

* * *

# Measurement target: FGFR1 (UniProt P11362)
# Sequence (P11362 whole entry, looked up): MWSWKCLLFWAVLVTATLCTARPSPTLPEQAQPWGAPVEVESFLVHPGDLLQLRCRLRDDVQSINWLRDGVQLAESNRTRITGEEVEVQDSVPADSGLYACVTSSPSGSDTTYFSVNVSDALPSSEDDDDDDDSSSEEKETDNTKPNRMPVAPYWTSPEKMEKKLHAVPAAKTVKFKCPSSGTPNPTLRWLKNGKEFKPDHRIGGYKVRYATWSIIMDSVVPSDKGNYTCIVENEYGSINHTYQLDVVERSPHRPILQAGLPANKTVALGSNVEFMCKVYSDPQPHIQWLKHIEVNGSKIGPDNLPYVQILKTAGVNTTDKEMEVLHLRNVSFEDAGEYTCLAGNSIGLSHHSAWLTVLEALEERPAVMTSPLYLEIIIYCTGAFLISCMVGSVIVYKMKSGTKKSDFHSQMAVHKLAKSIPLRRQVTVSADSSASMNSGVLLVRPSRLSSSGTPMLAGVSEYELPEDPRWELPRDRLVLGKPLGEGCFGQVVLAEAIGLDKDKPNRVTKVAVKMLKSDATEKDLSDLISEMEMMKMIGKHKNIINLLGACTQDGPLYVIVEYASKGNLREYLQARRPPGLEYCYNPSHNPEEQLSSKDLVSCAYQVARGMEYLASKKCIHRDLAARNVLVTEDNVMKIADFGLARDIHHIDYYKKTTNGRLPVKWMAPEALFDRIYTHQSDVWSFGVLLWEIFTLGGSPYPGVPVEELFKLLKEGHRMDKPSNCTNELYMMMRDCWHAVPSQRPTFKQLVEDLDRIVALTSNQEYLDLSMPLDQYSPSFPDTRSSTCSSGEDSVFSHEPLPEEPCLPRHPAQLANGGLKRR
# Assay protocol: phosphorylation enrichment, bacterial display (enrichment ratio); higher = better substrate or ligand; peptides without Tyr show the background
Would you kindly list phosphorylation enrichment for each of these sequences?
Numbers only.

As a guide, the following entries are already answered.
# Sequence content, Measurement target, phosphorylation enrichment
data = [
    ("PKEQKYSFLQD [GH1_Y68_N73D]", "FGFR1 (UniProt P11362)", 0.597),
    ("PRDSGYSYETI [MAP1B_Y1921_S1917R]", "FGFR1 (UniProt P11362)", 0.679),
    ("IKETHYMVDRC", "FGFR1 (UniProt P11362)", 0.555),
]

For every record below, what is its phosphorylation enrichment?
1. PLDNLYAEPAV [PRPS1_Y146_V142L]
2. PRARTYCFKQE [KLHDC9_Y175_S171R_YF]
3. ALAHKYQGGGG [HBB_Y146_H147Q]

0.719
0.395
0.476

For every record below, what is its phosphorylation enrichment?
1. ENFDDYMKDVG [FABP4_Y20_E23D]
2. AFLGEYIPTVF [RAC2_Y32_P29L]
3. LREKVYASLEA [RXRA_Y397]
4. IGKAGYTDKVV [ENO1_Y236]
5. HAVFIYDICHV [TWNK_Y508_V507I_YF]
6. SMAKFYASGIA [ACADSB_Y373_E376G_YF]
7. RAILDYIASKY [GSTA3_Y74_N73D]
8. EEGNPYFSGAR [MCCC2_Y520_S523G_YF]

0.546
0.826
0.84
0.456
0.54
0.428
0.512
0.521

For every record below, what is its phosphorylation enrichment?
1. IEDNKYTAREG [HCK_Y411_E410K]
2. EEDPEYKKKFR [FAM161A_Y278]
3. HLVLNYGVCIC [JAK2_Y613_V617I]
4. EASEQHLTKAS [NRCAM_Y739_Y739H]
5. TEALYYTDDPA [ADPRS_Y75_T79P]

0.558
0.66
0.607
0.433
5.2

For every record below, what is its phosphorylation enrichment?
1. HNLDFYKETTN [FGFR3_Y648_K650E_YF]
2. FASTGYVIAIQ [GRIN2B_Y762_G763V]
3. INPIIYAFVVE [CCR5_Y297_G301V]
4. AAVLNYKAWRD [GRIN2A_Y737_G740W]
5. RFLERDIFNRE [HLA-DPB1_Y57_Y57D_YF]

1. 0.645
2. 0.484
3. 1
4. 0.534
5. 0.682

For every record below, what is its phosphorylation enrichment?
1. RSAGKDDVFLI [MECP2_Y120_Y120D_YF]
2. AHLLQYNHRVK [LGALS3_Y221]
3. AKGMKYLASKK [MET_Y1194]
4. LGKLTYPVGFW [NTHL1_Y177_I176T]
5. KDKLPYPFDDP [GPX2_Y125_YF]

[0.629, 0.397, 0.341, 1.31, 0.567]

For every record below, what is its phosphorylation enrichment?
1. KGPNVCKKTVN [REV3L_Y1156_Y1156C]
2. YPPDGYSRHCE [CTNND1_Y213_Y217C]
3. LYVDVYGPSVP [NUBPL_Y109_D105Y]
4. AGVDRYSLGTS [C5orf42_Y1451_P1446A]
5. FSQQTYFRVSN [ABCD1_Y180_YF]

1: 0.529; 2: 0.496; 3: 2.8; 4: 0.398; 5: 1.23

For every record below, what is its phosphorylation enrichment?
1. AFLEDYFTSTK [SRC_Y522_E527K]
2. GEDEPYSEPYA [APBA1_Y183]
3. IVAEFYDNLPH [DEGS1_Y284_A280V_YF]
4. LLRFLYFFVCS [SLC34A2_Y109_G106R]
5. DVFLKYLNFAT [PDE6B_Y212]
6. TVLEPYTDPFF [ZC3H18_Y367_A368T_YF]
7. ALAAPYVLYPS [CEFIP_Y1332_G1337S]
8. DVELLYPVKEK [EPHX1_Y283]

0.639
0.516
0.477
0.72
0.535
1.29
2.02
0.394

For every record below, what is its phosphorylation enrichment?
1. MLEVSYVDRNS [F10_Y384_P383S]
2. LVQAEYWHDRI [PPT1_Y185_P189R]
3. ALKWGYTVKGI [OAT_Y158_R154L]
4. INITIYGKTFH [EFHC1_Y177_R182H]
5. KVDKEYEVRVR [GHR_Y226]
6. SHSMRYFDTSV [HLA-C_Y31_A35S]
7. PINEPYGDDLD [JUP_Y693_M697L]
8. AMIADYMFWLG [SPATA16_Y290]

0.441
3.27
0.426
0.429
0.52
0.47
0.873
12.2
